- Test system: SARS-CoV-2
- Experiment Summary: Antiviral assay in infected Vero E6 cells (ATP quantification, Cell Titer Glo)
- Particulars: Severe acute respiratory syndrome coronavirus 2, Vero C1008, 72 h, read-out: Antiviral Activity, 10 uM (cell viability assay), 10 uM; Vero E6 cells, MOI 0.05, 72 h
Endpoint Name: inhibition at 10 µM

Compound	Endpoint Name	Assay Value
Cc1ccc(NC(=O)CCCCCOc2cc(-c3scnc3C)ccc2CNC(=O)[C@@H]2C[C@@H](O)CN2C(=O)[C@@H](NC(=O)C2(F)CC2)C(C)(C)C)cc1C(=O)N[C@H](C)c1cccc2ccccc12 (stereo in doubt)	inhibition at 10 µM	< 0%
Cc1ccc(NC(=O)CCCCCNc2cccc3c2CN(C2CCC(=O)NC2=O)C3=O)cc1C(=O)N[C@H](C)c1cccc2ccccc12 (some centres unmarked)	inhibition at 10 µM	< 0%
Cc1ccc(NC2CCNCC2)cc1C(=O)N[C@H](C)c1cccc(-c2ccc(CNC(=O)CCCNc3cccc4c3C(=O)N(C3CCC(=O)NC3=O)C4=O)s2)c1 (some centres unmarked) [Compound C10778I]	inhibition at 10 µM	< 0%

Exercise: I am curious: what inhibition at 10 µM value has been reported for Cc1ccc(C(=O)NCCCCN2CCN(C(=O)Nc3cc(F)cc(CNC(=O)C4CCN([C@H](C)c5cccc6ccccc56)CC4)c3)CC2)cc1N1CCC(=O)NC1=O ?
Solution: < 0%

Exercise: I am curious: what inhibition at 10 µM value has been reported for Cc1ccc(NC(=O)CCOCCOCCNc2cccc3c2C(=O)N(C2CCC(=O)NC2=O)C3=O)cc1C(=O)N[C@H](C)c1cccc2ccccc12 (some centres unmarked) ?
Solution: < 0%

Exercise: I am curious: what inhibition at 10 µM value has been reported for C[C@H](c1cccc2ccccc12)N1CCC(C(=O)NCc2cc(F)cc(NC(=O)N3CCN(CCOCCOc4cccc5c4C(=O)N(C4CCC(=O)NC4=O)C5=O)CC3)c2)CC1 (some centres unmarked) ?
Solution: < 0%

Exercise: I am curious: what inhibition at 10 µM value has been reported for Cc1ccc(NC2CCNCC2)cc1C(=O)N[C@H](C)c1cccc(-c2ccc(CNC(=O)CCCCCOc3cccc4c3C(=O)N(C3CCC(=O)NC3=O)C4=O)s2)c1 (some centres unmarked) [Compound C10778C] ?
Solution: < 0%

Exercise: I am curious: what inhibition at 10 µM value has been reported for C[C@H](c1cccc2ccccc12)N1CCC(C(=O)NCc2cc(F)cc(NC(=O)N3CCN(CCOCCOCCC(=O)N4CCN(c5ccc(N6CCC(=O)NC6=O)cc5)CC4)CC3)c2)CC1 ?
Solution: < 0%

Exercise: I am curious: what inhibition at 10 µM value has been reported for C[C@H](c1cccc2ccccc12)N1CCC(C(=O)NCc2cc(F)cc(NC(=O)N3CCN(CCCCC(=O)N4CCN(c5ccc(N6CCC(=O)NC6=O)cc5)CC4)CC3)c2)CC1 ?
Solution: < 25%

Exercise: I am curious: what inhibition at 10 µM value has been reported for C[C@H](c1cccc2ccccc12)N1CCC(C(=O)NCc2cc(F)cc(NC(=O)N3CCN(CCCCOc4ccc5c(c4)C(=O)N(C4CCC(=O)NC4=O)C5=O)CC3)c2)CC1 (some centres unmarked) ?
Solution: < 25%

Exercise: I am curious: what inhibition at 10 µM value has been reported for Cc1ccc(NC2CCNCC2)cc1C(=O)N[C@H](C)c1cccc(-c2ccc(CNC(=O)CCCNc3ccc4c(c3)C(=O)N(C3CCC(=O)NC3=O)C4=O)s2)c1 (some centres unmarked) [Compound C10778E] ?
Solution: < 0%

Source listed as patent US20260364182A1.
